Measured values drawn from patent US9540343B2 for this set.

- test summary: in vitro
- assay setup: human, uninfected MT-4 cells, CC50 (nM), same protocol as Test A, CellTiter-Glo
Assign CC50 at 5 days to each entry below.

Known CC50 at 5 days results, listed for orientation:
Lab note: measured CC50 at 5 days of CC1(C)CC(=O)c2c(C(F)(F)F)nn(CC(=O)N[C@@H](Cc3cc(F)cc(F)c3)c3ncccc3-c3ccc(F)c(C(N)=O)c3)c2C1 was > 53000 nM

// CC50 at 5 days value for NC(=O)c1cc(-c2cccnc2[C@H](Cc2cc(F)cc(F)c2)NC(=O)Cn2cc(C(F)(F)F)nc2C2CC2)ccc1F [Example 88E] : > 53200 nM

The reported CC50 at 5 days of the compound NC(=O)c1cc(-c2cccnc2[C@H](Cc2cc(F)cc(F)c2)NC(=O)C(CO)c2ccccc2)ccc1F (some centres unmarked) was > 53200 nM

Per the records, this compound ( CCC(C(=O)N[C@@H](Cc1cc(F)cc(F)c1)c1ncccc1-c1ccc(F)c(C(N)=O)c1)n1ccnc1C(C)C (single isomer, unassigned) [Example 558B] ) has CC50 at 5 days equal to > 53200 nM

Looking up CN1CCc2c(C(F)(F)F)nn(CC(=O)N[C@@H](Cc3cc(F)cc(F)c3)c3ncccc3-c3ccc(F)c(C(N)=O)c3)c2C1 , I found its CC50 at 5 days recorded as > 53200 nM

Look up CC50 at 5 days for the entries below, preserving their order.
1. COc1ccc2c(c1)NC(=O)C2CC(=O)N[C@@H](Cc1cc(F)cc(F)c1)c1ncccc1-c1ccc(F)c(C(N)=O)c1 (some centres unmarked)
2. NC(=O)c1cc(-c2ccc[n+]([O-])c2[C@H](Cc2cc(F)cc(F)c2)NC(=O)Cn2nc(C(F)(F)F)c3c2CS(=O)(=O)C3)ccc1F
3. COc1ccc(CC(=O)N[C@@H](Cc2cc(F)cc(F)c2)c2ncccc2-c2cccc(C(N)=O)c2)c(OC)c1

output:
1. > 53200 nM
2. > 53200 nM
3. > 53000 nM
